tested on: UACC-62 melanoma
measured_quantity: GI50

Previously resolved entries follow.
| compound | GI50 |
| --- | --- |
| C=C1C(=O)O[C@H]2[C@H]1CC/C(COC(=O)NCc1ccc(Cn3c(=O)sn(CCCCl)c3=O)cc1)=C\CC[C@@]1(C)O[C@@H]21 | 1440 nM |
| Cc1nc2ccc(Nc3nc(NCCN4CCOCC4)nc(Nc4ccc(F)cc4)n3)cc2n1Cc1ccccc1 | 2270 nM |
| COc1cc2c3c(n(CCCNCCN)c(=O)c2cc1OC)-c1cc2c(cc1C3=O)OCO2 | 1010 nM |

Please turn your attention to the following entry.
Lab note: need GI50 with UACC-62 melanoma for entry C#CC1(O)C(COP(=O)(O)OC2CC(n3cc(F)c(=O)[nH]c3=O)OC2CO)OC(n2ccc(N)nc2=O)C1O (stereo not drawn) , please look it up.
19 nM

----------
tested on: A549 NSCLC; experiment: NCI tumour cell line growth inhibition, 48 h
We begin with a simple list: items and their reported TGI.

For orientation, consider the following solved cases.
| compound | system | measured_quantity | meas_value |
| --- | --- | --- | --- |
| COc1ccc(N2C(=Nc3ccccc3)SC(=N/S(=O)(=O)c3ccccc3)/C2=N\S(=O)(=O)c2ccccc2)cc1 | A549 NSCLC | TGI | 46.5 µM |
| COc1ccc(-c2cc(/C=C3\C(=O)Nc4ccc(Cl)cc43)[nH]n2)cc1 | A549 NSCLC | TGI | 18.5 µM |
| C1CCN(c2nsc(N3CCCCC3)n2)CC1 | A549 NSCLC | TGI | > 100 µM |

If you can, please state the reported TGI value of Cn1c(=O)c(Oc2ccccc2F)cc2cnc(NC3CCOCC3)nc21 .
> 25 µM

----------
tested on: OVCAR-5 ovarian; assay: NCI tumour cell line growth inhibition, 48 h
measured_quantity: TGI (µM)
Give your result in µM as a bare value.

| input_smiles | system | unit_info | TGI |
| --- | --- | --- | --- |
| O=C1CSC(/C(=C\c2ccc(Cl)cc2)c2nc3ccccc3[nH]2)=N1 | OVCAR-5 ovarian | µM | 33.5 |

--- query ---
Name the recorded TGI for O=C(O)/C(=C/c1c(O)ccc2ccccc12)c1csc(-c2nc(/C(=C\c3c(O)ccc4ccccc34)C(=O)O)cs2)n1 .
31.9

----------
Entries and their measured TGI follow.
tested on: HS 578T breast; experiment: NCI tumour cell line growth inhibition, 48 h

Reference set, count: 3
| compound | TGI |
| --- | --- |
| CC1(C)[C@@H](Cn2cnc3c(N)ncnc32)CC[C@@]1(C)CO | > 100 µM |
| COc1ccc2cc1Oc1ccc(cc1)C(Sc1ccccc1)CCOC(=O)CC2 (centres undefined) | > 100 µM |
| O=C1CC(=O)c2c(O)cc(O)c(c2O)-c2c(ccc(O)c2O)C2=CC(=O)c3c(O)cc(O)c(c3O2)-c2c1ccc(O)c2O (tested in a mixture with another compound) | > 50 µM |

Now for a further compound.
Could you share which TGI value was measured for CCOC(=O)Nc1c(C#N)[n+]([O-])c2cc(Cl)c(Cl)cc2[n+]1[O-] ?
> 100 µM

----------
system: MDA-MB-435; test: NCI tumour cell line growth inhibition, 48 h
measured_quantity: TGI

| compound | TGI |
| --- | --- |
| CCOC(=O)Oc1cc2c(c(OC)c1OC)-c1ccc(SC)c(=O)cc1C(NC(=O)C(F)(F)F)CC2 (stereo not drawn) | < 0.001 µM |
| CC1(C)[C@@H](Cn2cnc3c(N)ncnc32)CC[C@@]1(C)CO | > 100 µM |

Give the measured TGI of CCOC(=O)N1CCN(c2ccc3c(C)cc(C)nc3n2)CC1 .
> 100 µM

----------
TGI: recorded values
tested on: OVCAR-3 ovarian; assay: NCI tumour cell line growth inhibition, 48 h

| molecule | TGI |
| --- | --- |
| COC(=O)C1=C(C)NC2(O)C=CC(=O)C3C(=O)N(c4ccccc4)C(=O)C132 (stereo not drawn) | > 100 µM |
| CCOC(=O)c1[nH]c(-c2ccc(Cl)cc2)cc1-c1cccnc1 | > 100 µM |

# evaluate next
I'd like to know its TGI. The molecule in question is C[C@]1(CO)[C@H]2CC[C@@]34C=C[C@@](CO)(CC[C@H]3[C@]2(C)CC[C@H]1O)C4
> 100 µM

----------
# Lookup of reported TGI keyed by entry
test system: HCC-2998 colon; test: NCI tumour cell line growth inhibition, 48 h

| compound | TGI |
| --- | --- |
| O=C(CC/C=C(/CS(=O)(=O)c1ccccc1)S(=O)(=O)c1ccccc1)c1ccccc1 | > 100 µM |
| Nc1nnc2cc(Cl)ccc2n1 | > 100 µM |
| Cc1ccnc2[nH]c(-c3cccc(Cl)c3)cc(=O)c12 | > 43 µM |

Which TGI is reported with HCC-2998 colon for this entry: COc1ccc2cc1Oc1ccc(cc1)C(Sc1ccccc1)CCOC(=O)CC2 (stereo not given) ?
> 100 µM

Record lookup: for HCC-2998 colon, what TGI belongs to O=[N+]([O-])/C(C(Cl)=C(Cl)Cl)=C1\NCCO1 ?
> 100 µM

----------
system: U251 CNS; experiment: NCI tumour cell line growth inhibition, 48 h
measured_quantity: TGI

// worked examples, TGI included
| compound | TGI |
| --- | --- |
| CC(=O)N1CCc2c([nH]c3ccc(Br)cc23)C1c1ccccc1 (centres undefined) | > 10 µM |
| O=C(O)CCCCCOc1cccnc1/C=N/NC1=NCCN1 | > 100 µM |

Given O=C(CC/C=C(/CS(=O)(=O)c1ccccc1)S(=O)(=O)c1ccccc1)c1ccccc1 , state its recorded TGI.
> 100 µM

// returns reported TGI for input CC12CCC(C(=O)O1)C(C)(C)O2 (centres undefined)
> 100 µM

----------
Catalogue of TGI readings, one per entry.
system: OVCAR-4 ovarian; assay: NCI tumour cell line growth inhibition, 48 h

Consider the reported TGI for these compounds:
| compound | system | meas_value |
| --- | --- | --- |
| Cc1c(C(=O)c2ccccc2C(=O)O)c2ccccc2n1C | OVCAR-4 ovarian | > 100 µM |
| Nc1nnc2cc(Cl)ccc2n1 | OVCAR-4 ovarian | > 100 µM |
| Cc1sc2nc(-c3cc([N+](=O)[O-])c(Cl)cc3Cl)c(/C=N/N=C(N)N)n2c1C | OVCAR-4 ovarian | 9 µM |
| CCOC(=O)c1c(Br)c(-c2ccc(Br)cc2)c(Br)n1C | OVCAR-4 ovarian | > 100 µM |
| CC(=O)NCCC1CN(C(=O)/C=C\C#C[Si](C)(C)C)c2ccccc21 (centres undefined) | OVCAR-4 ovarian | 63.3 µM |
| C/C(=N/NC(=S)Nc1ccccc1Cl)c1cccc(/C(C)=N\NC(=S)Nc2ccccc2Cl)n1 | OVCAR-4 ovarian | > 100 µM |
| CCCCCCCCCCCCCCCCSCC(COC)COP(=O)([O-])OCC[N+](C)(C)C (centres undefined) | OVCAR-4 ovarian | 15.3 µM |
| CC(C)c1ccc(/C(C(=O)O)=C(\O)C(=O)O)cc1 | OVCAR-4 ovarian | > 100 µM |

# get_value(readout= TGI, system= OVCAR-4 ovarian) for CC(C)CCC[C@@H](C)[C@H]1CCC2C3CC=C4C[C@@H](Oc5c6ccccc6nc6ccccc56)CCC4C3CCC21 (some centres undefined)
> 50 µM

----------
system: IGROV1 ovarian; assay: NCI tumour cell line growth inhibition, 48 h
measured_quantity: TGI

Here are 2 molecules together with their reported answers.
| molecule | meas_value |
| --- | --- |
| Nc1ccc2c(c1)NCCN2 | > 100 µM |
| CCOC(=O)/C(=C\c1ccc(N(C)C)cc1)S(=O)(=O)C(F)(F)C(F)(F)C(F)(F)C(F)(F)F | > 100 µM |

Consider the record given below.
Please report the recorded TGI for CN(C)N1C(=O)c2ccccc2NC1c1ccccc1 (stereo not drawn) .
> 100 µM

----------
system: SK-MEL-5 melanoma; test: NCI tumour cell line growth inhibition, 48 h
A collection of compounds and their measured TGI

| compound | meas_value |
| --- | --- |
| C=C=C(CC)C(C(=O)OC)N(CC)CC (configuration not stated) | > 100 µM |
| C=C1C(=O)OC2CC1C(O)C/C(C)=C/CC/C(C)=C/C(O)CC2C (configuration not stated) | 15.4 µM |
| COc1ccccc1NC(=O)n1nc(N)c2ccccc21 | > 100 µM |
| O=C(O)/C(=C/c1c(O)ccc2ccccc12)c1csc(-c2nc(/C(=C\c3c(O)ccc4ccccc34)C(=O)O)cs2)n1 | 37.1 µM |

// query TGI value for entry COC1=C(N=[N+]=[N-])C(=O)c2ncccc2C1=O
23.4 µM

GET /values?readout=TGI&item= O=c1[nH]c(=O)n(C2OC(CO)C(O)C2O)c2c1CCCC2 (configuration not stated)
> 100 µM

Any idea what TGI was measured for Nc1ccc(S(=O)(=O)C23CC4CC(CC(C4)C2)C3)cc1 ?
> 100 µM
